- Test System: hGLP-1R (Homo sapiens, UniProt P43220)
- Protocol Text: cell-based or functional assay
*1 amine or outer side, *2 acyl side, *3 side chain or, on linkers, in order; H or OH if unused. Where no end group is shown, it is not given here. Side-chain parts run from the residue outwards. [ ]: non-standard residue; d: D form. The star is where a group is joined. Decanoyl(10-(4-HOOC-PhO)) = O=C(O)c1ccc(OCCCCCCCCCC(=O)*)cc1; αMePhe(2-F) = C[C@](N)(Cc1ccccc1F)C(=O)O; γGlu = O=C(O)[C@H](CCC(=O)[*:2])N[*:1]; αMeY = C[C@](N)(Cc1ccc(O)cc1)C(=O)O; αMeL = CC(C)C[C@](C)(N)C(=O)O; Orn = NCCC[C@H](N)C(=O)O; AEEA = NCCOCCOCC(=O)O; Aib = CC(C)(N)C(=O)O
Property Label: cAMP Emax (%)
Output spec: scalar in %, unitless text.

Some solved entries appear below for comparison.
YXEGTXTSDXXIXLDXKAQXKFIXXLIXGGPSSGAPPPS (Y-Aib-EGT-αMeF(2F)-TSD-4Pal-Aib-I-αMeL-LD-Orn-K((2-[2-(2-Amino-ethoxy)-ethoxy]-acetyl)3-(γ-Glu)-CO-(CH2)10-CH3)AQ-Aib-K((2-[2-(2-Amino-ethoxy)-ethoxy]-acetyl)3-(γ-Glu)-CO-(CH2)10-CH3)FI-(D-Glu)-αMeY-LI-Orn-GGPSSGAPPPS-NH2) [Example 433]
102
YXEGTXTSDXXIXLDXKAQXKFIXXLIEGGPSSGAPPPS (Y-Aib-EGT-αMeF(2F)-TSD-4Pal-Aib-I-αMeL-LD-Orn-K((2-[2-(2-Amino-ethoxy)-ethoxy]-acetyl)2-(γ-Glu)-CO-(CH2)10-CH3)AQ-Aib-K((2-[2-(2-Amino-ethoxy)-ethoxy]-acetyl)2-(γ-Glu)-CO-(CH2)10-CH3)FI-(D-Glu)-αMeY-LIEGGPSSGAPPPS-NH2) [Example 322]
100
Y[Aib]EGT[αMePhe(2-F)]TSDV[Aib]I[αMeL]LD[Orn]K([AEEA-γGlu-Decanoyl(10-(4-HOOC-PhO))])AQ[Aib]EFI[dE][αMeY]LIK([AEEA-γGlu-Decanoyl(10-(4-HOOC-PhO))])GGPSSGAPPPS-NH2 [Example 379]
104
YXEGTXTSDYXIXLDXKAQXKFIXXLIXGGPSSGAPPPS (Y-Aib-EGT-αMeF(2F)-TSDY-Aib-I-αMeL-LD-Orn-K((2-[2-(2-Amino-ethoxy)-ethoxy]-acetyl)2-(γ-Glu)-(10-(4-carboxyphenoxy)decanoyl))AQ-Aib-K((2-[2-(2-Amino-ethoxy)-ethoxy]-acetyl)2-(γ-Glu)-(10-(4-carboxyphenoxy)decanoyl))FI-(D-Glu)-αMeY-LI-Orn-GGPSSGAPPPS-NH2) [Example 409]
103
Y[Aib]EGT[αMePhe(2-F)]TSDV[Aib]I[αMeL]LD[Orn]K([AEEA-AEEA-γGlu-Decanoyl(10-(4-HOOC-PhO))])AQ[Aib]EFI[dE][αMeY]LIK([AEEA-AEEA-γGlu-Decanoyl(10-(4-HOOC-PhO))])GGPSSGAPPPS-NH2 [Example 326]
94.4
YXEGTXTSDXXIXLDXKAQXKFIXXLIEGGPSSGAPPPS (Y-Aib-EGT-αMeF(2F)-TSD-4Pal-Aib-I-αMeL-LD-Orn-K((2-[2-(2-Amino-ethoxy)-ethoxy]-acetyl)-(γ-Glu)-(10-(4-carboxyphenoxy)decanoyl))AQ-Aib-K((2-[2-(2-Amino-ethoxy)-ethoxy]-acetyl)-(γ-Glu)-(10-(4-carboxyphenoxy)decanoyl))FI-(D-Glu)-αMeY-LIEGGPSSGAPPPS-NH2) [Example 360]
89.8

# ---- query binder ----
Task: I am curious: what cAMP Emax value has been reported for Y[Aib]EGT[αMePhe(2-F)]TSDV[Aib]I[αMeL]LD[Orn]IAQ[Aib]K([AEEA-γGlu-Decanoyl(10-(4-HOOC-PhO))])FI[dE][αMeY]LIK([AEEA-γGlu-Decanoyl(10-(4-HOOC-PhO))])GGPSSGAPPPS-NH2 [Example 382] ?
Output: 101
